Taken from ChEMBL document CHEMBL1136466.

# system: UniProt:P56817
# procedureSummary: Inhibition of beta-secretase 1 (BACE) was determined at the concentration of 2 uM

{"columns": ["compoundSmiles", "inhibition"],
 "data": [
  ["CC(C)C[C@H](NC(=O)[C@@H](NC(=O)[C@@H](N)CCC(=O)O)C(C)C)C(=O)N[C@@H](Cc1ccccc1)[C@@H](O)C(=O)N[C@@H](C)C(=O)N[C@@H](C)C(=O)N[C@@H](CCC(=O)O)C(=O)N[C@@H](Cc1ccccc1)C(=O)O", "53%"],
  ["CC[C@@H](C)[C@H](NC(=O)[C@@H](N)CCC(=O)O)C(=O)N[C@@H](CC(C)C)C(=O)N[C@@H](Cc1ccccc1)[C@@H](O)C(=O)N[C@@H](CC(=O)O)C(=O)N[C@@H](C)C(=O)N[C@@H](CCC(=O)O)C(=O)N[C@@H](Cc1ccccc1)C(=O)O", "26%"]
]}

----------
# system: Beta-secretase 1 (Homo sapiens)
# procedureSummary: Inhibition of beta-secretase 1 (BACE) was determined at the concentration of 2 uM
Starred links: 1 amine or outer side, 2 acyl side, 3 side chain; linkers in the order of their positions; H or OH if unused. Non-standard residues stand in square brackets, D forms with d. Residues, ends and D or L forms follow the SMILES beside them. β3hPhe(2R-OH) = O=C([C@H](O)[C@H](Cc1ccccc1)N[*:1])[*:2]

{"columns": ["compound", "resultOperator", "inhibition (%)"],
 "data": [
  ["CC(C)[C@H](NC(=O)[C@@H](N)CCC(=O)O)C(=O)N[C@@H](CC(=O)O)C(=O)N[C@@H](Cc1ccccc1)[C@@H](O)C(=O)N[C@@H](CC(=O)O)C(=O)N[C@@H](C)C(=O)N[C@@H](CCC(=O)O)C(=O)N[C@@H](Cc1ccccc1)C(=O)O (H-EVD[β3hPhe(2R-OH)]DAEF-OH)", "=", 25],
  ["CC(C)[C@H](NC(=O)[C@@H](N)CCC(=O)O)C(=O)N[C@@H](CCC(N)=O)C(=O)N[C@@H](Cc1ccccc1)[C@@H](O)C(=O)N[C@@H](CC(=O)O)C(=O)N[C@@H](C)C(=O)N[C@@H](CCC(=O)O)C(=O)N[C@@H](Cc1ccccc1)C(=O)O (H-EVQ[β3hPhe(2R-OH)]DAEF-OH)", "=", 36],
  ["CC(C)C[C@H](NC(=O)[C@@H](NC(=O)[C@@H](N)CCC(=O)O)C(C)C)C(=O)N[C@@H](Cc1ccccc1)[C@@H](O)C(=O)N[C@@H](CC(=O)O)C(=O)N[C@@H](C)C(=O)N[C@@H](Cc1ccccc1)C(=O)N[C@@H](Cc1ccccc1)C(=O)O (H-EVL[β3hPhe(2R-OH)]DAFF-OH)", "=", 67],
  ["CC(C)[C@H](NC(=O)[C@@H](N)CCC(=O)O)C(=O)N[C@@H](CCC(=O)O)C(=O)N[C@@H](Cc1ccccc1)[C@@H](O)C(=O)N[C@@H](CC(=O)O)C(=O)N[C@@H](C)C(=O)N[C@@H](CCC(=O)O)C(=O)N[C@@H](Cc1ccccc1)C(=O)O (H-EVE[β3hPhe(2R-OH)]DAEF-OH)", "=", 30],
  ["CC(C)C[C@H](NC(=O)[C@H](Cc1ccccc1)NC(=O)[C@@H](N)CCC(=O)O)C(=O)N[C@@H](Cc1ccccc1)[C@@H](O)C(=O)N[C@@H](CC(=O)O)C(=O)N[C@@H](C)C(=O)N[C@@H](CCC(=O)O)C(=O)N[C@@H](Cc1ccccc1)C(=O)O (H-EFL[β3hPhe(2R-OH)]DAEF-OH)", "<", 20],
  ["CC(C)C[C@H](NC(=O)[C@@H](NC(=O)[C@@H](N)CCC(=O)O)C(C)C)C(=O)N[C@H](Cc1ccccc1)[C@@H](O)C(=O)N[C@@H](C)C(=O)N[C@@H](C)C(=O)N[C@@H](CCC(=O)O)C(=O)N[C@@H](Cc1ccccc1)C(=O)O", "<", 20],
  ["CC(C)C[C@H](NC(=O)[C@@H](NC(=O)[C@@H](N)CCC(=O)O)C(C)C)C(=O)N[C@@H](Cc1ccccc1)[C@@H](O)C(=O)N[C@@H](C)C(=O)N[C@H](C(=O)N[C@@H](CCC(=O)O)C(=O)N[C@@H](Cc1ccccc1)C(=O)O)C(C)C (H-EVL[β3hPhe(2R-OH)]AVEF-OH)", "=", 30]
]}

----------
# system: Beta-secretase 1 (Homo sapiens, UniProt P56817)
# Sequence (P56817 whole entry): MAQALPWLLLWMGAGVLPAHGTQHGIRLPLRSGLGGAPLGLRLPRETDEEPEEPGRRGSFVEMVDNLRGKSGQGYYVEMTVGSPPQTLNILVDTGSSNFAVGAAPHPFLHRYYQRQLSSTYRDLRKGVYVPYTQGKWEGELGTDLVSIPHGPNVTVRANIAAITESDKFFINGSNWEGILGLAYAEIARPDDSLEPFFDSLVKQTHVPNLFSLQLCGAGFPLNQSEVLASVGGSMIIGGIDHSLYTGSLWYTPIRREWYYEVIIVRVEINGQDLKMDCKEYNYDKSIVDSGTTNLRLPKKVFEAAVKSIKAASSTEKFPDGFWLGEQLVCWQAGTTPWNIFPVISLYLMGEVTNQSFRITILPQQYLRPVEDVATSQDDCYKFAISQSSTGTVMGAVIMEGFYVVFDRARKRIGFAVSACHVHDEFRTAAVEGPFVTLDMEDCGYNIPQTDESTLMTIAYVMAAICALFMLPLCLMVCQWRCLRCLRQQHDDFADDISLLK
# procedureSummary: Inhibition of beta-secretase 1 (BACE) was determined at the concentration of 2 uM
Starred links: 1 amine or outer side, 2 acyl side, 3 side chain; linkers in the order of their positions; H or OH if unused. Non-standard residues stand in square brackets, D forms with d. Residues, ends and D or L forms follow the SMILES beside them. β3hPhe(2R-OH) = O=C([C@H](O)[C@H](Cc1ccccc1)N[*:1])[*:2]

{"columns": ["compound", "inhibition"],
 "data": [
  ["CC(C)C[C@H](NC(=O)[C@H](CC(C)C)NC(=O)[C@@H](N)CCC(=O)O)C(=O)N[C@@H](Cc1ccccc1)[C@@H](O)C(=O)N[C@@H](CC(=O)O)C(=O)N[C@@H](C)C(=O)N[C@@H](CCC(=O)O)C(=O)N[C@@H](Cc1ccccc1)C(=O)O (H-ELL[β3hPhe(2R-OH)]DAEF-OH)", "< 20%"],
  ["CC(C)C[C@H](NC(=O)[C@@H](NC(=O)[C@@H](N)CCC(=O)O)C(C)C)C(=O)N[C@H](Cc1ccccc1)[C@@H](O)C(=O)N[C@@H](CCC(N)=O)C(=O)N[C@@H](C)C(=O)N[C@@H](CCC(=O)O)C(=O)N[C@@H](Cc1ccccc1)C(=O)O", "33%"],
  ["CC(C)C[C@H](NC(=O)[C@@H](NC(=O)[C@@H](N)CCC(=O)O)C(C)C)C(=O)N[C@@H](Cc1ccccc1)[C@@H](O)C(=O)N[C@@H](CCC(N)=O)C(=O)N[C@@H](C)C(=O)N[C@@H](CCC(=O)O)C(=O)N[C@@H](Cc1ccccc1)C(=O)O", "41%"],
  ["CC(C)C[C@H](NC(=O)[C@@H](NC(=O)[C@@H](N)CCC(=O)O)C(C)C)C(=O)N[C@H](Cc1ccccc1)[C@@H](O)C(=O)N[C@@H](CC(=O)O)C(=O)N[C@@H](C)C(=O)N[C@@H](CCC(=O)O)C(=O)N[C@@H](Cc1ccccc1)C(=O)O", "66%"]
]}

----------
# system: UniProt P56817
# procedureSummary: Inhibition of beta-secretase 1 (BACE) was determined at the concentration of 2 uM
Starred links: 1 amine or outer side, 2 acyl side, 3 side chain; linkers in the order of their positions; H or OH if unused. Non-standard residues stand in square brackets, D forms with d. Residues, ends and D or L forms follow the SMILES beside them. β3hPhe(2R-OH) = O=C([C@H](O)[C@H](Cc1ccccc1)N[*:1])[*:2]; X1 = CC(C)C[C@H](N[*:1])[C@@H](O)C(=O)[*:2]

{"columns": ["molecule", "inhibition"],
 "data": [
  ["CC(C)C[C@H](NC(=O)[C@@H](NC(=O)[C@@H](N)CCC(=O)O)C(C)C)C(=O)N[C@H](Cc1ccccc1)[C@@H](O)C(=O)N[C@@H](CC(N)=O)C(=O)N[C@@H](C)C(=O)N[C@@H](CCC(=O)O)C(=O)N[C@@H](Cc1ccccc1)C(=O)O", "22%"],
  ["CC(C)C[C@H](NC(=O)[C@H](CC(N)=O)NC(=O)[C@@H](NC(=O)[C@@H](N)CCC(=O)O)C(C)C)[C@@H](O)C(=O)N[C@@H](CC(=O)O)C(=O)N[C@@H](C)C(=O)N[C@@H](CCC(=O)O)C(=O)N[C@@H](Cc1ccccc1)C(=O)O (H-EVN[X1]DAEF-OH)", "< 20%"],
  ["CC(C)C[C@H](NC(=O)[C@H](C)NC(=O)[C@H](CC(=O)O)NC(=O)[C@H](O)[C@H](Cc1ccccc1)NC(=O)[C@H](CC(C)C)NC(=O)[C@@H](NC(=O)[C@@H](N)CCC(=O)O)C(C)C)C(=O)N[C@@H](Cc1ccccc1)C(=O)O (H-EVL[β3hPhe(2R-OH)]DALF-OH)", "57%"],
  ["CSCC[C@H](NC(=O)[C@@H](N)CCC(=O)O)C(=O)N[C@@H](CC(C)C)C(=O)N[C@@H](Cc1ccccc1)[C@@H](O)C(=O)N[C@@H](CC(=O)O)C(=O)N[C@@H](C)C(=O)N[C@@H](CCC(=O)O)C(=O)N[C@@H](Cc1ccccc1)C(=O)O (H-EML[β3hPhe(2R-OH)]DAEF-OH)", "< 20%"],
  ["CSCC[C@H](NC(=O)[C@@H](NC(=O)[C@@H](N)CCC(=O)O)C(C)C)C(=O)N[C@@H](Cc1ccccc1)[C@@H](O)C(=O)N[C@@H](CC(=O)O)C(=O)N[C@@H](C)C(=O)N[C@@H](CCC(=O)O)C(=O)N[C@@H](Cc1ccccc1)C(=O)O (H-EVM[β3hPhe(2R-OH)]DAEF-OH)", "42%"]
]}
